Tested on: RAW-Dual
Assay: NF-kB SEAP reporter activity, fold change vs agonist alone; cytotoxicity flag (confluency mask): cytotoxic (confluency <70% of control); higher = enhanced NF-kB activity
Conditions: agonist: Pam3CSK4 (TLR2/1) 0.1 ug/mL
Over roughly 2,900 compounds, “NF-kB SEAP reporter activity, fold change vs agonist alone” has its median near 0.99; the highest 2% begin near 2.6. The list comes from a sample in which the highest values are over-represented; it also holds close analogues and randomly drawn compounds.
Note to self: values exactly at 0.6 are Criterion met. So NF-kB SEAP reporter activity at or above 0.6 is Criterion met, below is Criterion not met.

| Compound | Group label |
| --- | --- |
| Cc1cc(Nc2ncc3c(n2)N(C)C(=O)N(c2cc(NC(=O)c4cccc(C(F)(F)F)c4)ccc2C)C3)n(C)n1 (library stock concentration (final ~1000-fold dilution): 10 mM) | Criterion not met |
| Cc1cc2c(C(N)=O)cccc2n1-c1nc2c(c(NCc3ccccc3)n1)COCC2 (library stock concentration (final ~1000-fold dilution): 10 mM) | Criterion not met |
| CC(C)N(CCC(=O)c1ccc2ccccc2c1)Cc1ccccc1.Cl (library stock concentration (final ~1000-fold dilution): 10 mM) | Criterion not met |
| COc1cc(OC)cc(N(CCNC(C)C)c2ccc3ncc(-c4cnn(C)c4)nc3c2)c1 (library stock concentration (final ~1000-fold dilution): 10 mM) | Criterion met |
| CN(C)CCC=C1c2ccccc2C(C)(C)c2ccccc21.Cl (library stock concentration (final ~1000-fold dilution): 10 mM) | Criterion met |
| O=C1Nc2ccc(Cl)cc2C(C#CC2CC2)(C(F)(F)F)O1 (stereo unspecified) (library stock concentration (final ~1000-fold dilution): 10 mM) | Criterion not met |
| Cl.Cl.Cn1cc(CNCC2CCN(c3ncc(C(=O)NO)cn3)CC2)c2ccccc21 (library stock concentration (final ~1000-fold dilution): 10 mM) | Criterion met |
| CC(NC(=O)/C(C#N)=C/c1cccc(Br)n1)c1ccccc1 (stereo unspecified) (library stock concentration (final ~1000-fold dilution): 10 mM) | Criterion not met |
| CN(C)CCCn1cc(C2=C(c3c[nH]c4ccccc34)C(=O)NC2=O)c2ccccc21 (library stock concentration (final ~1000-fold dilution): 10 mM) | Criterion not met |
| O=c1cc(N2CCOCC2)oc2c(-c3ccccc3)cccc12 (library stock concentration (final ~1000-fold dilution): 10 mM) | Criterion met |
| Cc1cc(O)c(-c2ccc(C(C)CN(C)C)cc2)c2c1[nH]c(=O)c1sccc12.Cl.Cl (stereo unspecified) (library stock concentration (final ~1000-fold dilution): 10 mM) | Criterion not met |
| CC(NCCC(c1ccccc1)c1ccccc1)c1ccccc1.Cl (stereo unspecified) (library stock concentration (final ~1000-fold dilution): 10 mM) | Criterion met |
| O=C(N/N=C/c1ccc([N+](=O)[O-])o1)c1ccc(O)cc1 (library stock concentration (final ~1000-fold dilution): 10 mM) | Criterion met |
| O=C(/C=C/c1cncc(F)c1)c1c(-c2ccccc2)c2cc(Cl)ccc2[nH]c1=O (library stock concentration (final ~1000-fold dilution): 10 mM) | Criterion not met |
| CNC(C)C(=O)NC(C(=O)N1CCCC1C(=O)NC1c2ccccc2CC1OCC#CC#CCOC1Cc2ccccc2C1NC(=O)C1CCCN1C(=O)C(NC(=O)C(C)NC)C1CCCCC1)C1CCCCC1 (stereo unspecified) (library stock concentration (final ~1000-fold dilution): 10 mM water) | Criterion met |
| O=C(NO)c1cnc(NC2(c3ccccc3)CC2)nc1 (library stock concentration (final ~1000-fold dilution): 10 mM) | Criterion met |
